Test system: colistin-resistant P. aeruginosa isolated from cystic fibrosis patients
testSettings: colistin-resistant isolated from cystic fibrosis patients
Peptide text beside a SMILES is read from it.
Listed compounds paired with reported MIC90

compound | MIC90 (µM)
CC[C@@H](C)[C@@H](NC(=O)[C@@H](CCCNC(=N)N)NC(=O)[C@@H](CCCNC(=N)N)NC(=O)[C@@H](CC(C)C)NC(=O)[C@@H](Cc1c[nH]c2ccccc12)NC(=O)[C@@H](C)NC(=O)[C@@H](CCCCN)NC(=O)[C@H](NC(=O)[C@@H](CCCNC(=N)N)NC(=O)[C@@H](CCCNC(=N)N)NC(=O)[C@@H](CC(C)C)NC(=O)[C@H](N)Cc1c[nH]c2ccccc12)[C@H](C)CC)C(=O)N[C@H](CCCCN)C(=O)N[C@H](C)C(N)=O | 16
CC[C@H](C)[C@H](NC(=O)[C@H](Cc1c[nH]c2ccccc12)NC(=O)[C@H](CCCCN)NC(=O)[C@H](CCCCN)NC(=O)[C@@H](NC(=O)[C@H](CCCNC(=N)N)NC(=O)[C@H](CCCNC(=N)N)NC(=O)[C@@H](NC(=O)[C@@H](N)Cc1c[nH]c2ccccc12)[C@@H](C)CC)[C@@H](C)CC)C(=O)N[C@@H](CCCNC(=N)N)C(=O)N[C@@H](CCCNC(=N)N)C(=O)N[C@H](C(=O)N[C@@H](Cc1c[nH]cn1)C(=O)N[C@@H](CCCCN)C(=O)O)C(C)C [RR2] (H-WIRRIKKWIRRVHK-OH; N-terminus and C-terminus assumed) | 32
CC[C@H](C)[C@H](NC(=O)[C@H](CCCNC(=N)N)NC(=O)[C@H](CCCNC(=N)N)NC(=O)[C@H](CC(C)C)NC(=O)[C@@H](N)Cc1c[nH]c2ccccc12)C(=O)N[C@@H](CCCCN)C(=O)N[C@@H](C)C(=O)N[C@@H](Cc1c[nH]c2ccccc12)C(=O)N[C@@H](CC(C)C)C(=O)N[C@@H](CCCNC(=N)N)C(=O)N[C@@H](CCCNC(=N)N)C(=O)N[C@@H](CCCCN)C(=O)N[C@@H](CCCNC(=N)N)C(=O)N[C@@H](CCCCN)C(=O)O [RR3] (H-WLRRIKAWLRRKRK-OH; N-terminus and C-terminus assumed) | 32

Every entry's value here was drawn from paper PMC5537347.
